Values from patent US20160200799A1

- experimental system: Influenza virus A/Panama/2007/1999 (H3N2) (Influenza A virus A/Panama/2007/1999 (H3N2))
- assay method text: cell-based or functional assay
Neutralizing activity (%) at 100 µg/ml by entry:
assay endpoint: Neutralizing activity (%) at 100 µg/ml

• Group 43 representative clone F081-007, Fab-PP-type antibody (Fab, V domains shown) VH: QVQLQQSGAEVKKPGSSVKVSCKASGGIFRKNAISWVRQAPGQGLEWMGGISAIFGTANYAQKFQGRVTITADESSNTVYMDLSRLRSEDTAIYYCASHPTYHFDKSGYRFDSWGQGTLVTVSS VL: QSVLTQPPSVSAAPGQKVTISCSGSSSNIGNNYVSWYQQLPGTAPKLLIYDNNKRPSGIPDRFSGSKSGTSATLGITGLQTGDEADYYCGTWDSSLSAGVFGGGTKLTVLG = 11.6
• Group 58 representative clone F083-307, Fab-PP-type antibody (Fab, V domains shown) VH: QVQLQQSGADVKKPGSSVKVSCKASGGTFGNYAISWVRQAPGQGLEWMGGITPIFGPANYAQRFQGRVTISADISTRTAYMELSSLRSEDTAIYYCARHPTYYFGSAMEYWGQGTLVTVSS VL: SYELTQPPSVSVAPGQTATITCGGDRIGTGPVHWYQQRPGRAPVLIIYGSTHRPSGIPERFSGSKSVNTATLSISGVGVGDEADYYCQVWDTSTAQPIVFGGGTKLTVLS = -6.8
• Group 2 representative clone F082-220, Fab-PP-type antibody (Fab, V domains shown) VH: QVQLVQSGAEVKKPGSSVKVSCKASGGIFRSNAVSWVRQAPGQGLEWMGGIIAIFGTPKYAQKFQGRVTITADESTSTVYMELSGLRYEDTAVYYCARGPNYYESYFDYWGQGTLVTVSS VL: DIVMTQSPPSLSASVGDRVTITCRASQGISNYLAWYQQKPGKAPKLLIFGASTLHSGVSSRFSGSGSGPDFTLTISSLQPEDAATYYCQKYHSAPLTFGGGTKVEMK = 3.4
